Tested on: windgrass (Apera spica-venti)
assay-name: Test D controlled growth environment herbicide test, pre- and postemergence
Assay type: in vivo
experimental-setup: Preemergence, 125 g ai/ha; scale 0 to 100 (0 no effect, 100 complete control)
readout-type: Plant response rating, Windgrass
One number for each entry.

Reference set (3 entries):
[[record]]
test_smiles = "CCOC(=O)Oc1c(C)nn(C)c(=O)c1-c1c(C)ccc2ccccc12"
readout_value = 90

[[record]]
test_smiles = "CCC(=O)Oc1c(C)nn(C)c(=O)c1-c1c(C)sc2ccc(C)cc12"
readout_value = 85

[[record]]
test_smiles = "COC(=O)Oc1c(C)nn(C)c(=O)c1-c1c(C)sc2c(C)cc(C)cc12"
readout_value = 90


Please state Plant response rating, Windgrass for every compound in the list that follows.
1. COc1nn(C)c(=O)c(-c2c(C)ccc3ccccc23)c1OC(=O)OC(C)C
2. CC(=O)Oc1c(C)nn(C)c(=O)c1-c1c(C)cc(C)c2ccccc12
3. CCOC(=O)Oc1c(C)nn(C)c(=O)c1-c1c(C)sc2c(C)cc(C)cc12

Result:
[5, 80, 90]

###

System: wheat (Triticum aestivum)
assay-name: Test A greenhouse herbicide test, pre- and postemergence
Assay type: in vivo
experimental-setup: Postemergence, 500 g ai/ha; visual rating after approx. 10 d, 0 to 100 scale (0 no effect, 100 complete control)
readout-type: Plant response rating, Wheat
Give bare numbers.

Use the examples below as a reference point.
[[record]]
test_smiles = "Cc1nn(C)c(=O)c(-c2ccc(F)c3ccccc23)c1OC(=O)CC(F)(F)F"
readout_type = "Plant response rating, Wheat"
readout_value = 20

[[record]]
test_smiles = "CCCC(=O)Oc1c(C)nn(C)c(=O)c1-c1c(C)sc2c(C)cc(C)cc12"
readout_type = "Plant response rating, Wheat"
readout_value = 20

[[record]]
test_smiles = "COc1nn(C)c(=O)c(-c2c(C)sc3ccccc23)c1OC(C)=O"
readout_type = "Plant response rating, Wheat"
readout_value = 0

[[record]]
test_smiles = "Cc1nn(C)c(=O)c(-c2c(C)sc3ccccc23)c1OC(=O)N1CCOCC1"
readout_type = "Plant response rating, Wheat"
readout_value = 0

[[record]]
test_smiles = "CC(=O)Oc1ccc2cccc(-c3c(OC(C)=O)c(C)nn(C)c3=O)c2c1"
readout_type = "Plant response rating, Wheat"
readout_value = 0


Give measured Plant response rating, Wheat for every item shown.
1. Cc1n[nH]c(=O)c(-c2cccc3ccccc23)c1OC(F)F
2. Cc1nn(C)c(=O)c(-c2c(C)sc3ccc(Cl)cc23)c1O
3. Cc1cc(C)c2ccccc2c1-c1c(OS(C)(=O)=O)c(C)nn(C)c1=O

Result:
1. 20
2. 20
3. 20

###

Field: pest or weed control at 500 g/ha. Provide a value for each of the compounds that follow.
Tested on: foxtail, giant (giant foxtail, Setaria faberii)
assay-name: Test A greenhouse herbicide test, pre- and postemergence
Format: in vivo
experimental-setup: Setaria faberi, pre-emergence, 240 h; Preemergence, 500 g ai/ha; 0 to 100 scale, 0 no effect, 100 complete control; read-out: Plant response rating, Foxtail, Giant
Answers are plain numbers, in %.

Before answering, review these 3 worked examples.
[[record]]
compound = "COc1nn(C)c(=O)c(-c2c(C)c(C)cc3ccccc23)c1O [Compound 46]"
readout_type = "pest or weed control at 500 g/ha"
readout_value = 90

[[record]]
compound = "CC(=O)Oc1c(C)nn(C)c(=O)c1-c1c(C)oc2c(C)cccc12 [Compound 15]"
readout_type = "pest or weed control at 500 g/ha"
readout_value = 70

[[record]]
compound = "Cc1nn(C)c(=O)c(-c2c(C)oc3c(C)cccc23)c1O [Compound 9]"
readout_type = "pest or weed control at 500 g/ha"
readout_value = 100


As a next step, examine the compound that follows.
For this compound ( CCc1sc2cc(C)cc(C)c2c1-c1c(O)c(C)nn(C)c1=O [Compound 19] ), measured pest or weed control at 500 g/ha is 0

###

System: wheat (Triticum aestivum)
assay-name: Test A greenhouse herbicide test, pre- and postemergence
Type: in vivo
experimental-setup: Postemergence, 125 g ai/ha; 0 to 100 scale where 0 is no effect and 100 is complete control
Give measured Plant response rating, Wheat for each item. Keep answers brief.
Answers are plain numbers.

[[record]]
test_smiles = "COc1nn(C)c(=O)c(-c2cccc3ccccc23)c1O"
readout_value = 0


Please report Plant response rating, Wheat for every entry that follows.
1. Cc1ccc2ccccc2c1-c1c(O)c(Cl)nn(C)c1=O
2. COc1nn(C)c(=O)c(-c2c(C)sc3ccc(Cl)cc23)c1O

Result:
50
0

Hi, could you look up Plant response rating, Wheat for each item in my list?
1. CCC(=O)Oc1c(Cl)nn(C)c(=O)c1-c1c(C)sc2ccc(Cl)cc12
2. Cc1cc(C)c2ccccc2c1-c1c(O)cnn(C)c1=O

Result:
1. 20
2. 0

###

Tested on: blackgrass (Alopecurus myosuroides)
assay-name: Test D controlled growth environment herbicide test, pre- and postemergence
Assay type: in vivo
experimental-setup: Preemergence, 62 g ai/ha; scale 0 to 100 (0 no effect, 100 complete control)
From the text: […]
Hi there, I'd appreciate the recorded Plant response rating, Blackgrass for every entry that follows.
Answers are plain numbers.

Look over these answered cases.
[[record]]
molecule = "CCOC(=O)Oc1c(C)nn(C)c(=O)c1-c1c(C)sc2c(C)cc(C)cc12 [Compound 83]"
readout_value = 60

[[record]]
molecule = "COc1nn(C)c(=O)c(-c2c(C)ccc3ccccc23)c1O [Compound 54]"
readout_value = 30

[[record]]
molecule = "Cc1ccc2sc(C)c(-c3c(O)c(C)nn(C)c3=O)c2c1 [Compound 1]"
readout_value = 70


Please report Plant response rating, Blackgrass for every entry that follows.
1. CCC(=O)Oc1c(C)nn(C)c(=O)c1-c1c(C)sc2ccc(C)cc12 [Compound 42]
2. Cc1ccc2ccc(C)c(-c3c(O)c(C)nn(C)c3=O)c2c1 [Compound 60]

Result:
80
95

Here are 2 molecules. What values of Plant response rating, Blackgrass were reported for them?
1. Cc1cc(C)c2sc(C)c(-c3c(OC(=O)OC(C)C)c(C)nn(C)c3=O)c2c1 [Compound 67]
2. C#CCOC(=O)Oc1c(C)nn(C)c(=O)c1-c1c(C)sc2ccc(C)cc12 [Compound 87]

Result:
75
75

###

Test system: soybean (Glycine max)
assay-name: Test E greenhouse herbicide test, pre- and postemergence
Assay type: in vivo
experimental-setup: 250 g ai/ha, Postemergence; scale 0 to 100 (0 no effect, 100 complete control)
Assignment: determine reported Plant response rating, Soybean for the given compounds.
One number for each entry.

Observe how each entry below is paired with its result.
[[record]]
test_smiles = "Cc1cc(C)c2sc(C)c(-c3c(OC(=O)OCCCl)c(C)nn(C)c3=O)c2c1"
readout_value = 15

[[record]]
test_smiles = "CCC(=O)Oc1c(C)nn(C)c(=O)c1-c1c(C)sc2ccc(C)cc12"
readout_value = 50

[[record]]
test_smiles = "CC(=O)Oc1c(C)nn(C)c(=O)c1-c1c(C)cc(C)c2ccccc12"
readout_value = 25


For the next question, use this compound.
Briefly, Plant response rating, Soybean measured for CC(=O)Oc1c(C)nn(C)c(=O)c1-c1c(C)sc2ccc(C)cc12 : 75

###

Tested on: oilseed rape (Brassica napus)
assay-name: Test D controlled growth environment herbicide test, pre- and postemergence
Format: in vivo
experimental-setup: Preemergence, 62 g ai/ha
Could you please report measured Plant response rating (scale of 0 to 100), Oilseed Rape for the items listed next?

Give Plant response rating (scale of 0 to 100), Oilseed Rape for all compounds that follow.
1. CC(=O)Oc1c(Br)nn(C)c(=O)c1-c1c(C)ccc2ccccc12
2. CCOC(=O)Oc1c(C)nn(C)c(=O)c1-c1c(C)sc2ccc(C)cc12
3. CCOC(=O)Oc1c(C)nn(C)c(=O)c1-c1c(C)sc2c(C)cc(C)cc12
4. C#CCOC(=O)Oc1c(C)nn(C)c(=O)c1-c1c(C)sc2ccc(C)cc12
5. Cc1cc(C)c2sc(C)c(-c3c(OC(=O)OCCCl)c(C)nn(C)c3=O)c2c1

Result:
1. 15
2. 35
3. 5
4. 30
5. 0

###

Test system: blackgrass (Alopecurus myosuroides)
assay-name: Test A greenhouse herbicide test, postemergence
Type: in vivo
experimental-setup: 125 g ai/ha, 0 to 100 scale where 0 is no effect and 100 is complete control
Description: At the same time, plants selected from these crop and weed species and also blackgrass (Alopecurus myosuroides), and galium (catchweed bedstraw, Galium aparine) were planted in pots containing the same blend of loam soil and sand and treated with postemergence applications of test chemicals formulated in the same manner. Plants ranged in height from 2 to 10 cm and were in the one- to two-leaf stage for the postemergence treatment. […]
readout-type: Plant response rating, Blackgrass
Give bare numbers.

Before answering, review these 5 worked examples.
[[record]]
compound = "Cc1ccc(-c2c(O)cnn(C)c2=O)c2ccccc12 [Compound 50]"
target_system = "blackgrass (Alopecurus myosuroides)"
readout_value = 0

[[record]]
compound = "CC(=O)Oc1c(C)nn(C)c(=O)c1-c1c(C(F)(F)F)ccc2ccccc12 [Compound 148]"
target_system = "blackgrass (Alopecurus myosuroides)"
readout_value = 60

[[record]]
compound = "COc1nn(C)c(=O)c(-c2c(C)ccc3ccccc23)c1O [Compound 54]"
target_system = "blackgrass (Alopecurus myosuroides)"
readout_value = 20

[[record]]
compound = "COc1nn(C)c(=O)c(-c2c(C)sc3ccc(Cl)cc23)c1OS(C)(=O)=O [Compound 135]"
target_system = "blackgrass (Alopecurus myosuroides)"
readout_value = 0

[[record]]
compound = "CC(=O)Oc1c(Br)nn(C)c(=O)c1-c1c(C)ccc2ccccc12 [Compound 129]"
target_system = "blackgrass (Alopecurus myosuroides)"
readout_value = 60


Required: Plant response rating, Blackgrass, one value per compound below.
1. CCC(=O)Oc1c(C)nn(C)c(=O)c1-c1c(C)sc2ccc(C)cc12 [Compound 42]
2. COC(=O)Oc1c(C)nn(C)c(=O)c1-c1c(C)sc2c(C)cc(C)cc12 [Compound 81]
3. Cc1ccc2ccccc2c1-c1c(O)cnn(C)c1=O [Compound 56]
4. CC(=O)Oc1ccc2cccc(-c3c(OC(C)=O)c(C)nn(C)c3=O)c2c1 [Compound 124]

Result:
[80, 90, 30, 0]

Report Plant response rating, Blackgrass for each item below.
1. CCCC(=O)Oc1c(C)nn(C)c(=O)c1-c1c(C)sc2c(C)cc(C)cc12 [Compound 106]
2. Cc1nn(C)c(=O)c(-c2c(C)sc3ccccc23)c1O [Compound 65]
3. C#Cc1ccc2cccc(-c3c(O)c(C)nn(C)c3=O)c2c1 [Compound 150]
4. CCOC(=O)Oc1c(C)nn(C)c(=O)c1-c1c(C(F)(F)F)ccc2ccccc12 [Compound 146]

Result:
1: 90; 2: 20; 3: 0; 4: 20
